Biological target: human recombinant GCS (Homo sapiens, UniProt Q16739)
Construct: made in house; host or cells: insect cells
Sequence (Q16739 whole entry): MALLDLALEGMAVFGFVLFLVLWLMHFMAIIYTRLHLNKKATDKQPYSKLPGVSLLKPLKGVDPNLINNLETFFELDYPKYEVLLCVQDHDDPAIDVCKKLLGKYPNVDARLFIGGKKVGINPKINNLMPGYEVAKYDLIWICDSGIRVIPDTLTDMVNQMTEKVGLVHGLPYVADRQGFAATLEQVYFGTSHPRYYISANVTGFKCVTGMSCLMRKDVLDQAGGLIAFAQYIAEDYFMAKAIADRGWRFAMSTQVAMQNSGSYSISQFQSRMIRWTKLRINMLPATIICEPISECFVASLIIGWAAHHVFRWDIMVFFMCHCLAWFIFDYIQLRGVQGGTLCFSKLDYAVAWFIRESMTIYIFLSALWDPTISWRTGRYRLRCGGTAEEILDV
Test: Human GCS inhibition, recombinant enzyme expressed in insect cells
Assay type: biochemical
EXPERIMENTAL_ENDPOINT: IC50
Write the numeric value and follow it with the unit.

Challenge: API: value(readout= IC50, system= human recombinant GCS (Homo sapiens, UniProt Q16739), query= CCCCCN1CC(O)C(O)C(O)C1CO (stereo not shown) )
Response given: 4 µM

====

Target: UniProt:P54818
Sequence (P54818 43-684): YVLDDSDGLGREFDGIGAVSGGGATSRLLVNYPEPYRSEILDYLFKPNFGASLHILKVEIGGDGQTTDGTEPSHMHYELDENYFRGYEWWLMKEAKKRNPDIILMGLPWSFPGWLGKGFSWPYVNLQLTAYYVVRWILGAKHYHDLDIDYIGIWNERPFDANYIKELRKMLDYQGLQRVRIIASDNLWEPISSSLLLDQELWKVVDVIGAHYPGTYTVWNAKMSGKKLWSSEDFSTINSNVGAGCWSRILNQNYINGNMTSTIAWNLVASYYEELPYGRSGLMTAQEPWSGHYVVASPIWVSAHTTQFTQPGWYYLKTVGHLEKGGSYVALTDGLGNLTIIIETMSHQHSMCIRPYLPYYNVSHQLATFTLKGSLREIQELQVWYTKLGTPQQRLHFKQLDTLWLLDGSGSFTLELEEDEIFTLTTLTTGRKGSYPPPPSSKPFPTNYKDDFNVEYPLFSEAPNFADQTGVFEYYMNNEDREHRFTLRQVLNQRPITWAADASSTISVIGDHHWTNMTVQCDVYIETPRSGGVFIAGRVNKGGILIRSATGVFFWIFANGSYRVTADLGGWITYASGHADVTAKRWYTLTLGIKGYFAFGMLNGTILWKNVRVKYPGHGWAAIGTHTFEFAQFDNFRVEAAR
Assay: Mouse ceramide β-galactosidase inhibition
Type: biochemical
EXPERIMENTAL_ENDPOINT: IC50

Challenge: Look at this molecule and give its reported IC50. CCCCN1C[C@H](O)[C@@H](O)[C@@H](O)[C@H]1CO [NB-DGJ, N-butyldeoxygalactonojirimycin]
Response given: 370 µM
